Target: Methionine--tRNA ligase, mitochondrial (Homo sapiens)
Assay: human mtMetRS tRNA charging inhibition – biochemical, radioactivity, round 1, selectivity assay for T. brucei MetRS inhibitor project, late-stage follow-up (AID 743061;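 also: 0% = DMSO with full reaction and 100% = DMSO wells lacking tRNA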)
Details: recombinant human mtMetRS, [3H]Met tRNA charging, at 10 µM, stronger effect = higher value
Observed Property: inhibition (%)
Value expressed in %; do not type the unit.

See these solved cases before continuing.
Molecule	Unit Of Measure	inhibition
Cc1cccc(C(=O)NCCc2nc3ccccc3n2CCOc2ccccc2)c1	%	4.57
O=C(NCc1nc2ccccc2[nH]1)C1=C[C@H](c2ccccc2)C[C@H](OCc2ccc(CO)cc2)O1	%	12.7
CCc1ccc2[nH]c3nc(SCC(=O)NCc4cccc(OC)c4)nnc3c2c1	%	13.1
CC(C)(C)[C@H]1C=C(C(=O)NCc2nc3ccccc3[nH]2)O[C@@H](OCc2ccc(CO)cc2)C1	%	10.3
C[C@H](O)[C@@H]1C(=O)N2CCc3c([nH]c4ccccc34)[C@@H]2C[C@@H]1N(C)Cc1ccc2c(c1)OCO2	%	24.8
CNC(=S)N(CCc1ccccc1)C1CC(=O)N(c2ccc(Br)cc2)C1=O (centres undefined)	%	83.7
CCN(CC)C(=O)C(=O)c1cn(CC(=O)N(CC)c2ccccc2)c2ccccc12	%	9.56
Cc1ccc2[nH]c3nc(SCC(=O)Nc4ccc(C(F)(F)F)cc4)nnc3c2c1	%	4.54

Please turn your attention to the following entry.
Exam item: Consider the molecule shown here: Cc1[nH]c2ccc(Br)cc2c(=O)c1CN1CCCCCC1 What is its recorded inhibition?
Marked response: -11

###

Biological target: Methionine--tRNA ligase, mitochondrial (Homo sapiens) (UniProt Q96GW9)
Assay: human mtMetRS tRNA charging inhibition – biochemical, radioactivity, round 1, selectivity assay for T. brucei MetRS inhibitor project, late-stage follow-up (AID 743061);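 also: 0% = DMSO with full reaction and 100% = DMSO wells lacking tRNA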
Settings: recombinant human mtMetRS, [3H]Met tRNA charging, at 10 µM, stronger effect = higher value
Hi all, reminder that labels come from inhibition, split as lower (below 10%), middle (10% to below 30%), upper (30% or more)

Would you please look over these solved cases?
Compound	Label Value
Clc1ccc(-c2nnc(SCc3nc4ccccc4[nH]3)o2)c(Cl)c1	upper
O=C(Cn1cc(C(=O)c2ccco2)c2ccccc21)Nc1cccc(C(F)(F)F)c1	middle
COc1cccc(NC(=O)CSc2nnc3c(n2)[nH]c2ccc(C)cc23)c1	upper
O=C(NCc1nc2ccccc2[nH]1)C1=C[C@H](C2CC2)C[C@H](OCc2ccc(CO)cc2)O1	middle
O=C1CC(N(CCc2ccccc2)C(=S)Nc2ccccc2)C(=O)N1c1ccc(Br)cc1 (stereo not given)	middle

Exam item: Which class is correct for the following compound? O=C(NCCc1nc2ccccc2[nH]1)c1ccc(Cl)c(Cl)c1
Marked response: middle

Exam item: Also need COc1ccccc1NC(=O)CSc1nnc2c(n1)[nH]c1ccc(C)cc12 , thanks.
Marked response: lower

Exam item: Another compound to look at: O=C(NCc1nc2ccccc2[nH]1)C1=C[C@@H](c2ccc(Br)cc2)C[C@@H](OCc2ccc(CO)cc2)O1
Marked response: middle

Exam item: Now this one: O=C(Cn1cc(C(=O)C(=O)N2CCOCC2)c2ccccc21)Nc1cccc(C(F)(F)F)c1
Marked response: lower

###

Target: Methionine--tRNA ligase, mitochondrial (Homo sapiens)
Assay: human mtMetRS tRNA charging inhibition – biochemical, radioactivity, round 1, selectivity assay for T. brucei MetRS inhibitor project, late-stage follow-up (AID 743061)
Details: recombinant human mtMetRS, [3H]Met tRNA charging, at 10 µM, stronger effect = higher value
Observed Property: inhibition (%)
State the answer as a number, implicitly in %.

Solved entries (count: 4):
Compound	Tgt	inhibition [%]
O=C(Cn1cc(C(=O)C2CC2)c2ccccc21)Nc1cccc(C(F)(F)F)c1	Methionine--tRNA ligase, mitochondrial (Homo sapiens)	11.9
CCCCCCCCCC1NC(C(=O)O)Cc2c1[nH]c1ccccc21 (centres undefined)	Methionine--tRNA ligase, mitochondrial (Homo sapiens)	9.9
COc1ccc(CNC(=O)CSc2nnc3c(n2)[nH]c2ccc(F)cc23)cc1	Methionine--tRNA ligase, mitochondrial (Homo sapiens)	-12
O=C(C(=O)N1CCOCC1)c1cn(CC(=O)N2CCCc3ccccc32)c2ccccc12	Methionine--tRNA ligase, mitochondrial (Homo sapiens)	3.68

Exam item: Methionine--tRNA ligase, mitochondrial (Homo sapiens) / inhibition / COc1ccc2[nH]c3nc(SCC(=O)Nc4ccc5c(c4)OCO5)nnc3c2c1 : value?
Marked response: 24.5

Exam item: Note, next up: O=C(CSC1CC(=O)N(c2cccc(Cl)c2)C1=O)Nc1ccc(Br)cc1 (centres undefined)
Marked response: 1.19

Exam item: Next compound: CCc1ccc2c(c1)c1nnc(SCC(=O)Nc3ccc4c(c3)OCO4)nc1n2C
Marked response: 5.87

###

Molecular target: Methionine--tRNA ligase, mitochondrial (Homo sapiens)
Test: human mtMetRS tRNA charging inhibition – biochemical, radioactivity, round 1, selectivity assay for T. brucei MetRS inhibitor project, late-stage follow-up (AID 743061)
Settings: recombinant human mtMetRS, [3H]Met tRNA charging, at 10 µM, stronger effect = higher value
Observed Property: inhibition (%)
# value in %; strip the unit string

Consider the following illustrative entries.
COc1ccccc1NS(=O)(=O)c1cccc(NC(=O)Nc2ccccc2)c1 19.1
COc1ccccc1-n1c(SCC(=O)Nc2ccc(Cl)cc2)nc(O)c(Cc2ccccc2)c1=O -19.7
Cc1ccc(NC(=O)CN(C)C(=O)CCSc2ccc(F)cc2)cc1 -21.5
Oc1c(Cl)cc(Cl)cc1CNc1nc2ccccc2[nH]1 31.4
O=C(NCc1nc2ccccc2[nH]1)C1=C[C@@H](c2csc3ccccc23)C[C@@H](OCCCCO)O1 6.67
O=C(NCc1nc2ccccc2[nH]1)C1=C[C@H](c2ccc(Br)cc2)C[C@H](OCc2ccc(CO)cc2)O1 17.2
O=C(Cn1cc(C(=O)C(=O)N2CCCC2)c2ccccc21)Nc1ccccc1 -0.86
CCN(CC)C(=O)C(=O)c1cn(CC(=O)Nc2cccc(C(F)(F)F)c2)c2ccccc12 40.8

Here is the next item to consider.
Exam item: What inhibition appears in the records for this compound with Methionine--tRNA ligase, mitochondrial (Homo sapiens)? O=C(NCc1nc2ccccc2[nH]1)C1=C[C@H](c2ccc(Br)cc2)C[C@H](OCCCCO)O1
Marked response: -2.4

###

Target: Methionine--tRNA ligase, mitochondrial (Homo sapiens) (UniProt Q96GW9)
Test: human mtMetRS tRNA charging inhibition – biochemical, radioactivity, round 1, selectivity assay for T. brucei MetRS inhibitor project, late-stage follow-up (AID 743061);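 also: 0% = DMSO with full reaction and 100% = DMSO wells lacking tRNA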
Conditions: recombinant human mtMetRS, [3H]Met tRNA charging, at 10 µM, stronger effect = higher value
// reported inhibition per item
Give your result in % as a bare value.

Molecule	Observed Property	Value Observed
O=C(Cn1cc(C(=O)c2ccccc2)c2ccccc21)Nc1cccc(C(F)(F)F)c1	inhibition	9.64
O=C(CSc1nnc2c(n1)[nH]c1ccc(Br)cc12)NCc1ccccc1	inhibition	21.6
O=C(CC=NOCc1ccc([N+](=O)[O-])cc1)Nc1ccc(Br)cc1	inhibition	-6.71
CC(=O)c1ccc(N2CCN(C(=O)CCCn3c(=O)[nH]c4ccc(Br)cc4c3=O)CC2)cc1	inhibition	7.87
O=C(CC=NOCc1ccc([N+](=O)[O-])cc1)Nc1ccc(Cl)cc1	inhibition	1.47
CCOC(=O)N1CCC(Nc2c(Nc3ccc(F)cc3)c(=O)c2=O)CC1	inhibition	-4.56
COc1ccccc1NC(=O)Cn1cc(C(=O)C(=O)N2CCOCC2)c2ccccc21	inhibition	-8.03
CCN(CC)C(=O)C(=O)c1cn(CC(=O)Nc2ccccc2OC)c2ccccc12	inhibition	-1.19

Exam item: What does the record list as inhibition for COc1ccc(NC(=O)CSc2nnc3c4cc(C)ccc4n(C)c3n2)cc1 ?
Marked response: 8.46

Exam item: Could you do the same for CN1CC(=O)N2C(c3cccc([N+](=O)[O-])c3)c3[nH]c4ccccc4c3C[C@H]2C1=O (some centres not stated) , please?
Marked response: 14

###

Biological target: Methionine--tRNA ligase, mitochondrial (Homo sapiens) (UniProt Q96GW9)
Experiment: human mtMetRS tRNA charging inhibition – biochemical, radioactivity, round 1, selectivity assay for T. brucei MetRS inhibitor project, late-stage follow-up (AID 743061);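 also: 0% = DMSO with full reaction and 100% = DMSO wells lacking tRNA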
Settings: recombinant human mtMetRS, [3H]Met tRNA charging, at 10 µM, stronger effect = higher value
Reported inhibition by item:

Compound	Tgt	inhibition
Cc1ccc(C(=O)NCCc2nc3ccccc3[nH]2)cc1[N+](=O)[O-]	Methionine--tRNA ligase, mitochondrial (Homo sapiens) (UniProt Q96GW9)	7.36%
O=C(NCCc1nc2ccccc2[nH]1)c1ccc(Cl)c([N+](=O)[O-])c1	Methionine--tRNA ligase, mitochondrial (Homo sapiens) (UniProt Q96GW9)	25.5%
COc1cccc(NC(=O)C2CC(=O)n3c(nc4ccccc43)N2)c1 (configuration not stated)	Methionine--tRNA ligase, mitochondrial (Homo sapiens) (UniProt Q96GW9)	9.79%
O=C(NNC(=O)c1ccc(-n2cncn2)c([N+](=O)[O-])c1)c1ccc(Cl)cc1	Methionine--tRNA ligase, mitochondrial (Homo sapiens) (UniProt Q96GW9)	-21.4%

Exam item: Short answer please: inhibition, Methionine--tRNA ligase, mitochondrial (Homo sapiens) (UniProt Q96GW9), entry COc1ccc(NC(=O)C2CC(=O)n3c(nc4ccccc43)N2)cc1 (configuration not stated)
Marked response: -2.5%

Exam item: Next compound: O=C(CCC(=O)Nc1cccc([N+](=O)[O-])c1)NN=Cc1cccs1
Marked response: -14.1%

Exam item: Queued: Brc1cnc2nc(SCc3nc4ccccc4[nH]3)[nH]c2c1
Marked response: -14.2%
